study_system: ER (Homo sapiens (Human))
Sequence (P03372 whole entry): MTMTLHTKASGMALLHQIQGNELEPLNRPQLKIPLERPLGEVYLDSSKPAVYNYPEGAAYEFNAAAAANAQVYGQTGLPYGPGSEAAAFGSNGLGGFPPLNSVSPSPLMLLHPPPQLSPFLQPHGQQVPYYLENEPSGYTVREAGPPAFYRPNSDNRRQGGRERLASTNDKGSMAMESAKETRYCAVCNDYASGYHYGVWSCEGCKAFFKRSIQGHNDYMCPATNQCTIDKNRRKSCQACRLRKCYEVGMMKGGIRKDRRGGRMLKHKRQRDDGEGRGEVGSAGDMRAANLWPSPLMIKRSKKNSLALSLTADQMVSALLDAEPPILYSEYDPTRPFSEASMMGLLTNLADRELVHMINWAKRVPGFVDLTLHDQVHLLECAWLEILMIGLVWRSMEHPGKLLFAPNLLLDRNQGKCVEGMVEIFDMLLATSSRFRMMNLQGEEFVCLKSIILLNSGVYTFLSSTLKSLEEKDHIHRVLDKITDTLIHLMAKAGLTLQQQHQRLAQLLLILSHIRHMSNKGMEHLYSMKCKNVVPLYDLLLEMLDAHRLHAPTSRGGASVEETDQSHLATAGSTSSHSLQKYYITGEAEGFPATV
procedure_text: In-cell western blot analysis of relative ER percentage (Compounds B1-B278)
Assay type: cell-based
condition_notes: ER degradation, 16 hours, read-out: ICW DC50
Let's look at some molecules and their measured DC50.
experimental_readout: DC50

# molecule, measured_result
records = [
    ("C[C@@H]1Cc2c([nH]c3ccccc23)[C@@H](c2cnc(N3CCC(CN4CCN5c6ccc7c(c6OC[C@H]5C4)CN(C4CCC(=O)NC4=O)C7=O)CC3)nc2)N1CC(C)(C)F (mixture of isomers)", "> 100 nM"),
    ("C[C@@H]1Cc2c([nH]c3ccccc23)[C@@H](c2cnc(N3CC4(CCC(CN5CCN6c7ccc8c(c7OC[C@H]6C5)CN(C5CCC(=O)NC5=O)C8=O)CC4)C3)nc2)N1CC(F)F (stereo partly shown)", "< 10 nM"),
    ("COc1cc(N2CCC3(CC2)CC(CN2CCN4c5ccc6c(c5OC[C@H]4C2)CN(C2CCC(=O)NC2=O)C6=O)CO3)ccc1[C@@H]1c2[nH]c3ccccc3c2C[C@@H](C)N1CC(F)F (stereo partly shown) [Compound B144]", "< 10 nM"),
    ("COc1cc(N2CCC3(CC2)CC(CN2CCN4c5cc6c(cc5OC[C@@H]4C2)C(=O)N(C2CCC(=O)NC2=O)C6)CO3)ccc1[C@@H]1c2[nH]c3ccccc3c2C[C@@H](C)N1CC(F)F (stereo partly shown)", "10 to 100 nM"),
    ("C[C@@H]1Cc2c([nH]c3ccccc23)[C@@H](c2cnc(N3CCC4(CC3)CC(CN3CCN5c6ccc7c(c6OC[C@H]5C3)CN(C3CCC(=O)NC3=O)C7=O)C4)nc2)N1CC(F)F (stereo partly shown)", "< 10 nM"),
    ("C[C@@H]1Cc2c([nH]c3ccccc23)[C@@H](c2cnc(N3CCC(CCN4CCN5c6cc7c(cc6OC[C@@H]5C4)C(=O)N(C4CCC(=O)NC4=O)C7)CC3)nc2)N1CC(F)F (stereo partly shown)", "< 10 nM"),
    ("C[C@@H]1Cc2c([nH]c3ccccc23)[C@@H](c2cnc(N3CCC(CCN4CCN5c6ccc7c(c6OC[C@H]5C4)CN(C4CCC(=O)NC4=O)C7=O)CC3)nc2)N1CC(F)(F)CO (stereo partly shown)", "> 100 nM"),
    ("C[C@@H]1Cc2c([nH]c3ccccc23)[C@@H](c2cnc(N3CCC4(CCC(CN5CCN6c7ccc8c(c7OC[C@H]6C5)CN(C5CCC(=O)NC5=O)C8=O)CC4)CC3)nc2)N1CC(C)(C)F (stereo partly shown)", "> 100 nM"),
    ("C[C@@H]1Cc2c([nH]c3ccccc23)[C@@H](c2cnc(N3CC4(CC(CN5CCN6c7ccc8c(c7OC[C@H]6C5)CN(C5CCC(=O)NC5=O)C8=O)C4)C3)nc2)N1CC(F)F (stereo partly shown)", "10 to 100 nM"),
    ("C[C@@H]1Cc2c([nH]c3ccccc23)[C@@H](c2cnc(N3CCC4(CC3)CC(CN3CCN5c6ccc7c(c6N(C)C[C@@H]5C3)CN(C3CCC(=O)NC3=O)C7=O)C4)nc2)N1CC(F)F (stereo partly shown)", "10 to 100 nM"),
]

Reference source for all entries: patent US20260007681A1
